- method-notes: Cytotoxicity against human HepG2(2.2.15) cells assessed as decrease in cell viability after 72 hrs by MTS assay
- Assay type: cell-based
- conditions: read-out: TC50
measured-attribute: CC50 at 72 h (µM)
Numbers only, in µM.

COc1ccc(C(C)=O)c(OS(=O)(=O)c2ccc(Cl)cc2)c1 13.8

I'm hoping you can list CC50 at 72 h for every compound here, please.
1. COc1ccc(C(C)=O)c(OS(=O)(=O)c2ccc([N+](=O)[O-])cc2)c1
2. O=c1[nH]cc(F)c(=O)[nH]1
3. Nc1ccn([C@@H]2CS[C@H](CO)O2)c(=O)n1

Out:
[10.9, 21.7, 352]
